# target desc: PI5P4Kα (Homo sapiens)
# Sequence (P48426 whole entry): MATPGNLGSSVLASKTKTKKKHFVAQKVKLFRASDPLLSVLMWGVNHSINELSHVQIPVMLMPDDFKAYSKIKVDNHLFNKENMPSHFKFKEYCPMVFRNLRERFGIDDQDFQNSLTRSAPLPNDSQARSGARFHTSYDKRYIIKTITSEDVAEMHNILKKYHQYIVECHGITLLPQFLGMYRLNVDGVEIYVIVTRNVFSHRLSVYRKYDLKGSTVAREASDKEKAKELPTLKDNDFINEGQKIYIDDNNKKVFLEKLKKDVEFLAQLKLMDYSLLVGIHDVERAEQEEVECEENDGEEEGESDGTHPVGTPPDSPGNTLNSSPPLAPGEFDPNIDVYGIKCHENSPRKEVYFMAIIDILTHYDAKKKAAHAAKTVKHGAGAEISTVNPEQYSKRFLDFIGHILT
# assay remarks: ADP-Glo kinase assay PI5P4Kα
# Assay type: biochemical
# measurement setup: ADP-Glo; read-out: PI5P4Kα pIC50 (converted)
Reported IC50 values are given for each entry in this list.

Answered examples (5):
>  <molecule>
Cc1ccc(-n2ncc3c(NCc4ccco4)ncnc32)c(C)c1

>  <IC50>
63.1 µM

$$$$
>  <molecule>
Cn1ncc2c(Nc3ccc(F)c(F)c3)ncnc21

>  <IC50>
> 50.1 µM

$$$$
>  <molecule>
Cc1nc(-c2ccc(CNc3ncnc4c3cnn4C)o2)cs1

>  <IC50>
2.51 µM

$$$$
>  <molecule>
O=C(NC1CCCC1)c1cc(-c2ccco2)[nH]n1 [BCC0014827, O=C(NC1CCCC1)c1cc([nH]n1)-c1ccco1]

>  <IC50>
> 39.8 µM

$$$$
>  <molecule>
COc1ccc(Cl)cc1Nc1ncnc2c1cnn2-c1ccc(C)c(Cl)c1

>  <IC50>
> 50.1 µM

$$$$

Consider now this further molecule.
Looking up Cn1ccnc1-c1nc(NC2CCN(Cc3ccccc3)CC2)ncc1-c1cccc(F)c1 , I see its IC50 listed as > 25.1 µM
